test system: Mus musculus; experiment: Maximum tolerated dose after intraperitoneal administration in mouse (period of 28 days); assay type: functional

{"columns": ["molecule", "MTD"],
 "data": [
  ["CC(O)CCC(=O)OC[C@]12C[C@H]3OC4(O)[C@@H](O[C@H](C)C[C@@]45NC(=O)CS5)O[C@@H]3C[C@@H]1CC[C@@H]1[C@@H]2CC[C@]2(C)[C@@H](C3=CC(=O)OC3)CC[C@]12CO (some centres not stated)", ">40 mg/kg"],
  ["C[C@@H]1C[C@@]2(N[C@@H](CC(=O)c3ccccc3)CS2)C2(O)O[C@@H]3C[C@@]4(C=O)[C@@H](CC[C@@H]5[C@@H]4CC[C@]4(C)[C@@H](C6=CC(=O)OC6)CC[C@]54CO)C[C@H]3O[C@@H]2O1 (some centres not stated)", "10 mg/kg"]
]}
